Biological target: IDO1 enzyme in Hela cells (Homo sapiens)
Construct: endogenous in cells; host or cells: HeLa cells stimulated with human recombinant IFN-γ
Sequence (P14902 whole entry): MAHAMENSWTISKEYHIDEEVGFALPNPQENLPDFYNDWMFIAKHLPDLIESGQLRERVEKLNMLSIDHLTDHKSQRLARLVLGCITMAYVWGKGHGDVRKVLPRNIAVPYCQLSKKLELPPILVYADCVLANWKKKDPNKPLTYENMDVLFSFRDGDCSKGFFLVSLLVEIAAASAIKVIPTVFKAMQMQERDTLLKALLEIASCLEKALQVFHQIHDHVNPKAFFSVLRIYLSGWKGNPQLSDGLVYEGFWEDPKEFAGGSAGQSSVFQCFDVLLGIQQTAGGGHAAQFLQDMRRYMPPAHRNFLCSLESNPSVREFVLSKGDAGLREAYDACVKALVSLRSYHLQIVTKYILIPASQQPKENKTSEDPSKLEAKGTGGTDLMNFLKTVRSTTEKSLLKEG
Assay: Inhibition of IDO1 enzyme in IFN-γ stimulated Hela cells (kynurenine read at 480 nm)
Type: cell-based
Settings: 10 μmol compound; IFN-γ stimulated Hela cells, 48 hours; read-out: Inhibition rate (%) 10 μmol
Would you kindly list inhibition at 10 µM for each of these compounds?
Don't forget the unit after the value.

Record excerpt, results attached:
chemical_string=CCCCN(CCCC)c1ccc(/C(C)=C/C(=O)O)cc1NC(=O)Nc1ccc(Cl)c(C(F)(F)F)c1 assay_value=100%
chemical_string=CCCCN(CCCC)c1ccc(/C(C)=C/C(=O)OCC)cc1NC(=O)Nc1ccccc1Cl assay_value=100%
chemical_string=CCCCN(CCCC)c1ccc(/C(C)=C/C(=O)O)cc1NC(=O)Nc1ccccc1Cl assay_value=100%

Now examine the next entry.
Query :: Can you share its inhibition at 10 µM? I mean this compound: CCCCN(CCCC)c1ccc(/C(C)=C/C(=O)OCC)cc1NC(=O)Nc1cccc(Cl)c1
Result :: 53.7%

From: patent US11370762B2
